These data points were gathered from patent US11981658B2.

systemUnderTest: UniProt:P00533
Sequence (P00533 25-1210): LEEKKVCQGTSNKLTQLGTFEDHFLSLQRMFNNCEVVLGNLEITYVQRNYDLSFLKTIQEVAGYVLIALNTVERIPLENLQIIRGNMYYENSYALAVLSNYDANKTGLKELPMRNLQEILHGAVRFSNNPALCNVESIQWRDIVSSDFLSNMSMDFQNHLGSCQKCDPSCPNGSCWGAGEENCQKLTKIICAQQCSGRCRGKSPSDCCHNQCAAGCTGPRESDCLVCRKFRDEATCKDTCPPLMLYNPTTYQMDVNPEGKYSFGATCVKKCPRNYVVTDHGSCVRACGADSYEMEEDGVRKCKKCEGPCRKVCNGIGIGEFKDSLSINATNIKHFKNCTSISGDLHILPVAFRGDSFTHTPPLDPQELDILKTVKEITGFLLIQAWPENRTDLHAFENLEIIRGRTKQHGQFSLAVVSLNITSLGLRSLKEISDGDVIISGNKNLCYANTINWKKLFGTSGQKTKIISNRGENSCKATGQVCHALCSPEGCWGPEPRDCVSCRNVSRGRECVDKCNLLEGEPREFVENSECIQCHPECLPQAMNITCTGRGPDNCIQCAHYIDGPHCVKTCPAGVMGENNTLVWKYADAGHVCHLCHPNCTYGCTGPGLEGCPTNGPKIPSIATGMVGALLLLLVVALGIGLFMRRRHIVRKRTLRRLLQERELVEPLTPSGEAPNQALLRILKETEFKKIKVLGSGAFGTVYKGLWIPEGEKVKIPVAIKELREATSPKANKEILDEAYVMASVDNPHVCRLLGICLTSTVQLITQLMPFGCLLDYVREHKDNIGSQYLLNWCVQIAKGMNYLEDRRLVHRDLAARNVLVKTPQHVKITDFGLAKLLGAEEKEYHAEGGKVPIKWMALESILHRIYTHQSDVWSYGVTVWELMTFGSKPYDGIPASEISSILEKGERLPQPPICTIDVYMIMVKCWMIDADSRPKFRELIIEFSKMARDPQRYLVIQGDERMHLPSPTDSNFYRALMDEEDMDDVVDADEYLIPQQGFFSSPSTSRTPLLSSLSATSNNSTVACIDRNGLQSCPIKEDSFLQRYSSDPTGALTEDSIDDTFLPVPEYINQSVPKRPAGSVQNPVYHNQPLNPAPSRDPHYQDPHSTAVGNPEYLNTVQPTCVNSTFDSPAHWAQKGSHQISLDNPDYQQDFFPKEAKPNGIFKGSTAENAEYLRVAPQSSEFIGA
testProtocol: Biochemical EGFR kinase inhibition assay (Lance Ultra TR-FRET), wildtype
cond: Km ATP; read-out: IC50 WT (nM), Km ATP
Consider the cut-off 20 nM. If the recorded IC50 is strictly smaller, the label is true; if not, the label is false.

Examples with answers:
compound | systemUnderTest | cat
CN(C)CCC1CCCN(c2cc(Nc3ccnc(-c4cnn(S(=O)(=O)C5CC5)c4)n3)ncc2C#Cc2cnn(C)c2)C1 (centres unmarked) [Example 396] | UniProt:P00533 | true
CN(C)CCC1CCN(c2cc(Nc3ccnc(-c4cnn(S(=O)(=O)C5CC5)c4)n3)ncc2C#Cc2cnn(C(F)(F)F)c2)CC1 [Example 335] | UniProt:P00533 | true
CC1(C#Cc2cnc(Nc3ccnc(-c4cnn(S(=O)(=O)C5CC5)c4)n3)cc2N[C@H]2CC[C@@H](CO)CC2)CC1 [Example 402] | UniProt:P00533 | false
CN(C)CCC1CCN(c2cc(Nc3ccnc(-c4cnn(S(=O)(=O)C5CC5)c4)n3)ncc2C#Cc2cnn(CC(F)(F)F)c2)CC1 [Example 349] | UniProt:P00533 | true
O=S(=O)(C1CC1)n1cc(-c2nccc(Nc3cc(N[C@H]4CC[C@@H](NCCF)CC4)c(C#Cc4cnn(CC(F)(F)F)c4)cn3)n2)cn1 [Example 345] | UniProt:P00533 | false
O=S(=O)(C1CC1)n1cc(-c2nccc(Nc3cc(N4C[C@@H]5[C@@H](CO)[C@@H]5C4)c(C#Cc4cnn(C(F)(F)F)c4)cn3)n2)cn1 [Example 331] | UniProt:P00533 | false
O=S(=O)(C1CC1)n1cc(-c2nccc(Nc3cc(N4CCCC(O)C4)c(C#Cc4cnn(CC(F)(F)F)c4)cn3)n2)cn1 (centres unmarked) [Example 343] | UniProt:P00533 | false
CC1(C#Cc2cnc(Nc3ccnc(-c4cnn(S(=O)(=O)C5CC5)c4)n3)cc2N2CCC(C)(CO)CC2)CC1 [Example 358] | UniProt:P00533 | false

In plain terms, does O=S(=O)(C1CC1)n1cc(-c2nccc(Nc3cc(N[C@H]4CCC[C@H](O)C4)c(C#Cc4cnn(CC(F)(F)F)c4)cn3)n2)cn1 [Example 341] come in under 20 nM for IC50? false

In plain terms, does O=S(=O)(C1CC1)n1cc(-c2nccc(Nc3cc(NC4CCC(O)CC4)c(C#CC4(F)CCOC4)cn3)n2)cn1 (centres unmarked) [Example 436] come in under 20 nM for IC50? true

In plain terms, does CNCC1(F)CCN(c2cc(Nc3ccnc(-c4cnn(S(=O)(=O)C5CC5)c4)n3)ncc2C#Cc2cnn(C)c2)CC1 [Example 382] come in under 20 nM for IC50? true

In plain terms, does O=S(=O)(C1CC1)N1CCC(C#Cc2cnc(Nc3ccnc(-c4cnn(S(=O)(=O)C5CC5)c4)n3)cc2N[C@H]2CC[C@@H](CO)CC2)CC1 [Example 390] come in under 20 nM for IC50? false

In plain terms, does CC1(CO)CCN(c2cc(Nc3ccnc(N4CCN(S(=O)(=O)C5CC5)CC4)n3)ncc2C#Cc2cnn(C(F)(F)F)c2)CC1 [Example 449] come in under 20 nM for IC50? false

In plain terms, does C[C@]1(O)CCCN(c2cc(Nc3ccnc(-c4cnn(S(=O)(=O)C5CC5)c4)n3)ncc2C#Cc2cnn(C(F)(F)F)c2)C1 [Example 448] come in under 20 nM for IC50? false
